FYI, the data here is from ChEMBL document CHEMBL4513216.

Recorded cytotoxicity at 10 µM for the following compounds
measurement description: Toxicity liver stage against HepG2, at 10uM
Type: cell-based
Design: test concentration 10 uM, cell line HepG2-A16-CD81EGFP
measurement context: human, HepG2-A16-CD81EGFP cells; read-out: INHIBITION
Expressed in %, but write only the number.

Previously resolved entries follow.
(Q) Could you tell me which cytotoxicity at 10 µM is on file for Cn1cc(NC(=O)C2CC(=O)N(c3n[nH]c4cccc(F)c34)C2)cn1 (centres undefined) ?
(A) 4.59

(Q) And what about the compound COCCN1CCO[C@@H]2CN(C(=O)NCc3cccnc3)CC[C@@H]2C1 ?
(A) 6.65

(Q) Let us now turn to O=C(CCN1CCCCCC1c1ccco1)N1CCOCC1 (centres undefined)
(A) 6.14

Others:
(Q) Entry under review: N#Cc1ccccc1N1CCN(C(=O)NCC(=O)N2CCCC2)CC1 . Reported cytotoxicity at 10 µM?
(A) -1.55

---

measurement description: Toxicity liver stage against HepG2, at 10uM
Assay type: cell-based
Parameters: test concentration 10 uM, cell line HepG2-A16-CD81EGFP
measurement context: human, HepG2-A16-CD81EGFP cells; read-out: INHIBITION
Below, each entry is listed alongside its reported cytotoxicity at 10 µM.
Just the number please, in %, no unit attached.

Examples from the recorded data:
(Q) Give the measured cytotoxicity at 10 µM of CN(C)C(=O)CNC(CC(F)(F)F)c1ccc(F)cc1 (configuration not stated) .
(A) -3.08

(Q) Now this one: COCC(=O)N1CCN(C)CC(Cc2cc(N(C)C)ncn2)C1 (configuration not stated)
(A) -1.79

(Q) Cool, now Cc1nn(C)cc1CN1CCN(CC2(c3ccccc3)CC2)CC1
(A) 1.25

(Q) Param item: CCSCCNC(=O)c1ccc(S(=O)(=O)N2C[C@H]3C[C@@H]2CN3)cc1
(A) -1.98

(Q) Continue with O=C(NCc1nc(C2CCCCC2)no1)C1CC(=O)N(C2CCCC2)C1 (configuration not stated)
(A) 0.761

(Q) Query CC(C)CNC(=O)c1ccc(NC(=O)NC(C)(C)CO)cc1Cl next
(A) 6.27

(Q) Also check C[S+]([O-])c1cccc(NC(=O)N(CCC#N)Cc2ccccn2)c1 (configuration not stated)
(A) 10.6

(Q) Quick one: Cc1cc(-c2noc(C3CCS(=O)(=O)C3)n2)ccc1F (configuration not stated)
(A) 8.22

---
(Q) Suppose we examine the compound CC(NC(=O)NCCCN(C)S(C)(=O)=O)c1cccc(Cl)c1 (configuration not stated) ; what cytotoxicity at 10 µM value has been reported?
(A) 3.44

(Q) Now the same for CC1(C)CNC(=O)c2nc(CCN3CCCCC3CO)[nH]c2C1 (configuration not stated)
(A) -3.24

(Q) For O=C(c1cc(-c2cn[nH]c2)nc2ccc(F)cc12)N1CCSCC1 then?
(A) -0.0178

---

Readings of cytotoxicity at 10 µM for the listed compounds
measurement description: Toxicity liver stage against HepG2, at 10uM
Format: cell-based
Set-up: test concentration 10 uM, cell line HepG2-A16-CD81EGFP
measurement context: human, HepG2-A16-CD81EGFP cells; read-out: INHIBITION
The figure you give is taken to be in %; do not add the unit.

As a guide, the following entries are already answered.
(Q) GET /values?readout=cytotoxicity at 10 µM&item= Clc1ccccc1CCN1CCN(c2ccc3nncn3n2)CC1
(A) 1.78

(Q) Now give it for Cc1ccc(C(=O)NC(CN2CCCC2=O)c2ccccc2)c(=O)[nH]1 (stereo not drawn) too.
(A) -2.23

(Q) Would you kindly repeat that for NCC1Cc2cc(-c3nccc(N4CCC(O)CC4)n3)cc(Cl)c2O1 (stereo not drawn) ?
(A) -4.33

(Q) CCCN1CCN(CC(O)c2ccc(OC(F)(F)F)cc2)CC1 (stereo not drawn) ?
(A) -20.5

(Q) Cool, now CN(Cc1ccccc1CN1CCCC1)C(=O)c1c(O)cccc1O
(A) -5.84

(Q) Now the same for CC[C@H](N)C(=O)Nc1nn(CC(F)(F)F)c2cc(OC(C)C)ccc12
(A) -2.8

(Q) Then Cc1nc(C)n(CC2CCCN(Cc3ccc(F)cc3C#N)C2)n1 (stereo not drawn) ?
(A) -10.8

(Q) Queued: O=C(NCc1ccnc(C2CCCOC2)n1)c1cccs1 (stereo not drawn)
(A) 0.44

Here's the next entry for you.
(Q) Consider the compound shown here: CC(=O)N1CCN(C(=O)CCCc2nnc(-c3ccccc3)o2)CC1 What is its recorded cytotoxicity at 10 µM?
(A) -12.5
